# tested target: hCA IX (Homo sapiens, UniProt Q16790)
# Construct: gene CA9; recombinant, obtained in-house
# procedure summary: stopped-flow CA inhibition assay
# Type: biochemical
Measured Ki, listed per entry.
Give just the number in nM; leave the unit off.

Tell me the measured Ki of NS(=O)(=O)c1ccc(CCn2c(SCC(=O)Nc3ccc(Cl)cc3)nc3ccccc3c2=O)cc1 , please.
66.8

Give its Ki value. Item: CC(Sc1nc2ccccc2c(=O)n1CCc1ccc(S(N)(=O)=O)cc1)C(=O)Nc1ccc(Cl)cc1 (stereo not drawn)
18.6

Recorded Ki of Cc1ccc(NC(=O)CSc2nc3ccccc3c(=O)n2CCc2ccc(S(N)(=O)=O)cc2)cc1 , please.
37.4

May I ask what Ki has been recorded for NS(=O)(=O)c1ccc(CCn2c(SCC(=O)Nc3ccccc3)nc3ccccc3c2=O)cc1 ?
27.3

Look up Ki for this compound: CC(=O)c1ccc(NC(=O)CSc2nc3ccccc3c(=O)n2CCc2ccc(S(N)(=O)=O)cc2)cc1
24.1

###

# tested target: hCA II (Homo sapiens)
# Construct: gene CA2; recombinant, obtained in-house
# procedure summary: stopped-flow CA inhibition assay
# Assay type: biochemical
property label: Ki (nM)
State just the number; it will be interpreted in nM.

Please give the measured Ki for this compound: NS(=O)(=O)c1ccc(CCn2c(SCC(=O)Nc3ccc(Cl)cc3)nc3ccccc3c2=O)cc1 [compound 11, 11]
92

###

Overview of recorded Ki for various compounds
# tested target: hCA IX (Homo sapiens)
# Construct: gene CA9; recombinant, obtained in-house
# procedure summary: stopped-flow CA inhibition assay
# Type: biochemical
# value in nM; strip the unit string

I have this compound here, CC(Sc1nc2ccccc2c(=O)n1CCc1ccc(S(N)(=O)=O)cc1)C(=O)c1ccccc1 (stereo not shown) , and I need its recorded Ki.
63.2

Entry NS(=O)(=O)c1ccc(CCn2c(SCC(=O)NCc3ccc(F)cc3)nc3ccccc3c2=O)cc1 has what Ki?
256

I am curious: what Ki value has been reported for NS(=O)(=O)c1ccc(CCn2c(SCC(=O)c3ccccc3)nc3ccccc3c2=O)cc1 ?
40.7

I am curious: what Ki value has been reported for NS(=O)(=O)c1ccc(CCn2c(SCC(=O)c3ccc(Br)cc3)nc3ccccc3c2=O)cc1 ?
75.2

// lookup Ki for NS(=O)(=O)c1ccc(CCn2c(SCC(=O)Nc3ccc(Br)cc3)nc3ccccc3c2=O)cc1
64.9

Which Ki is listed for COc1ccc(NC(=O)CSc2nc3ccccc3c(=O)n2CCc2ccc(S(N)(=O)=O)cc2)cc1 ?
84

Would you kindly share the measured Ki for Cc1ccc(C(=O)CSc2nc3ccccc3c(=O)n2CCc2ccc(S(N)(=O)=O)cc2)cc1 ?
25.1

Reported Ki for COc1cc(NC(=O)CSc2nc3ccccc3c(=O)n2CCc2ccc(S(N)(=O)=O)cc2)cc(OC)c1OC : what is it?
100

Recorded Ki of CCOc1ccc(NC(=O)CSc2nc3ccccc3c(=O)n2CCc2ccc(S(N)(=O)=O)cc2)cc1 , please.
35.9

Using the record for COc1ccc(CNC(=O)CSc2nc3ccccc3c(=O)n2CCc2ccc(S(N)(=O)=O)cc2)cc1OC , report its Ki.
145
